- Tested on: OVCAR-8
- Experiment notes: NCI tumour cell line growth inhibition, 48 h
Active and inactive are the calls of the source. Cut-off read from the data, not from the text of the source: active = GI50 up to about 1.1 µM and inactive = higher.
Labels: 1.0 for active, 0.0 for inactive

c1ccc2c(c1)Sc1ccccc1N2CC1CN2CCC1CC2 (stereo unspecified)    0.0
S=C(Nc1ccccc1)N1N=C2c3ccccc3CC[C@H]2[C@@H]1c1ccccc1    0.0
O=S(=O)(N/C(=N\O)Nc1ccc(Cl)cc1)c1ccc(S(=O)(=O)c2ccccc2)s1    0.0
COC(=O)/C=C1/CCC(C)(C(=O)NS(=O)(=O)c2ccc(C)cc2)C1(C)C (stereo unspecified)    0.0
CN1C(=O)C(c2c[nH]c3ccccc23)N(C)C(=O)C1c1c[nH]c2ccccc12 (stereo unspecified)    0.0
Nc1ccc2c(c1)C(=O)c1ccc(F)cc1-2    0.0
COc1ccccc1/C=C1\CCC(CCN2CCOCC2)C1=O (stereo unspecified)    0.0
N#C/C(=C\c1ccccc1)C(NO)Nc1ccccc1 (stereo unspecified)    0.0
CN(C)c1ccc(/C=c2/sc3nc(=O)c(-c4ccccc4NC(=O)C(F)(F)F)nn3c2=O)cc1    0.0
CCOc1cc(C(=O)O)c2c(ccc3ccc(OC)c(OC)c32)c1OC    0.0
O=C1[C@@H]2C(c3ccc(Cl)cc3Cl)=NO[C@@H]2C(=O)N1c1ccc(Cc2ccc(N3C(=O)[C@H]4C(c5ccc(Cl)cc5Cl)=NO[C@H]4C3=O)cc2)cc1    0.0
NC1=C(N2CCOCC2)C(=O)NC2=N/C(=C\c3ccccc3O)C(=O)N21    0.0
CC1=C(C(=O)NC(C)(C)C)CC(C(=O)NC(C)(C)C)C(C)N1 (stereo unspecified)    0.0
O=C(OC(=O)n1ccc2ccccc21)n1ccc2ccccc21    0.0
CC(=O)Oc1cc2c(cc1OCC(F)(F)F)[C@H]1CC[C@]3(C)[C@@H](OC(C)=O)CC[C@H]3[C@@H]1CC2=O    0.0
CCCC(=O)NC(Nc1cc(C)ccn1)(C(=O)OCC)C(F)(F)F (stereo unspecified)    0.0
CC(=O)OCCn1c(Cc2ccc(Cl)cc2)nn(C(C)=O)c1=O    0.0
O=[N+]([O-])/C(Cl)=C(/C(Cl)=C(Cl)Cl)N1CCOCC1    0.0
CC(=O)Nc1ccc2nc(-c3ccccn3)c(-c3ccccn3)nc2c1    0.0
O=C(c1nc2ccccc2nc1O)C(O)c1ccccc1 (stereo unspecified)    0.0
CCOC(=O)C1C(=S)NC(=O)C1C#N (stereo unspecified)    0.0
CC1=C2NCN(C)N=C2C(C#N)(C#N)C1(C#N)C#N    0.0
Cc1c2cc[n+](C)cc2c(C)c2c1[nH]c1ccc(OCC(F)(F)F)cc12    1.0
O=C(c1ccccc1)c1ccc2c(c1)nc1n2C(c2c(Cl)cccc2Cl)SC1 (stereo unspecified)    0.0
Cc1cc(NS(=O)(=O)c2ccc(NC(=O)c3cccc4c(Nc5ccc(S(=O)(=O)Nc6cc(C)on6)cc5)c5ccccc5nc34)cc2)no1    0.0
CC1=C(C(=O)Nc2ccc(Cl)c(C(=O)OC(C)C)c2)SCCO1    0.0
COC(=O)C(CCC1(C)OCCO1)C(C)=O (stereo unspecified)    0.0
Cc1c(C)c2c(c(N)c1C#N)C(=O)N(CCN1CCNCC1)C2=O    0.0
Cc1c(-c2nc(N)nc(C3CC3)c2C)nc(N)nc1C1CC1    0.0
C[N+](C)(C)CCC(=O)N1C/C(=C\c2ccccc2)C(=O)/C(=C/c2ccccc2)C1    0.0
CCCCCCCCCCCCC1N=C(N)N2CCCC2=C1C(=O)OC (stereo unspecified)    0.0
Cc1cc2c(cc1Cl)SC(NN(C)C)=NS2(=O)=O    0.0
COC(=O)CC1C(COC(C)=O)OC(n2cc(C)c(=O)[nH]c2=O)C1OC(C)=O (stereo unspecified)    0.0
Oc1ccc(-c2c3ccccc3c(-c3ccc(O)cc3)c3ccccc23)cc1    0.0
CCC1C(=O)C(O)[C@H]2[C@@H]3C(O)CC4=CC(=O)CC[C@]4(C)[C@H]3CC[C@]12C (stereo partly specified)    0.0
Cn1cc(NC(=O)c2cc(NC(=O)CCCCCCCCCC(=O)Nc3cc(C(=O)Nc4cc(C(=O)NCCC(=N)N)n(C)c4)n(C)c3)cn2C)cc1C(=O)NCCC(=N)N    0.0
Cc1nc(Cc2n[nH]c(C)n2)n[nH]1    0.0
Cc1cc(C)c2c(SCc3ccc(Cl)cc3Cl)nc(N)nc2n1    0.0
O=C(/C=C/c1ccsc1)c1ccsc1    0.0
CC(C)(C)OC1=C(OC(C)(C)C)C(O)(c2ccccc2)C1=O (stereo unspecified)    0.0
CC(C)OC(=O)C1=C2c3ncccc3C(=O)N2[C@@H](Cl)[C@H](Cl)[C@H]1Cl    0.0

* * *

- Tested on: HT-29
- Experiment notes: NCI tumour cell line growth inhibition, 48 h
Calls of active or inactive are those of the source. Rule as the data show it: active = GI50 up to about 1.1 µM and inactive = higher.
Labels: Yes = active, No = inactive

O=C(c1c(O)cc(O)cc1O)C1Cc2ccccc21 (stereo not given)    No
O=C1c2ccccc2C(=O)C12CCc1ccccc12    No
O=C(NC(CO)CO)c1ccc2cc(C(=O)N3CC(CCl)c4ccc([N+](=O)[O-])cc43)[nH]c2c1 (stereo not given)    No
O=C(OC(=O)n1ccc2ccccc21)n1ccc2ccccc21    No
COC(=O)C1=C(C(=O)OC)C2(C3C(SC)=CC(C)(C)CC3S1)N(Cc1ccccc1)CCN2Cc1ccccc1 (stereo not given)    No
COC(=O)CC1C(COC(C)=O)OC(n2cc(C)c(=O)[nH]c2=O)C1OC(C)=O (stereo not given)    No
CC1=C(CO)C2=C(C)C3(CC3)[C@@](C)(O)C(=O)C2=C1    Yes
Cc1ccc(NC(=O)C2C(=O)C(=O)N(c3ccc(C)cc3)C2=O)cc1 (stereo not given)    No
Cc1ccccc1CN1CC=c2ccccc2=N1    No
CC(C)OC(=O)C1=C2c3ncccc3C(=O)N2[C@@H](Cl)[C@H](Cl)[C@H]1Cl    No

* * *

Some molecules, each annotated with its measured GI50.
- Tested on: LOX IMVI
- Experiment notes: NCI tumour cell line growth inhibition, 48 h
Activity calls are given as the source filed them. Cut-off read from the data, not from the text of the source: active = GI50 up to about 1.1 µM and inactive = higher.
Outcome measure: GI50

O=S(=O)(O)c1ccc(O)c2ncc(Cl)cc12    > 100 µM (inactive)
c1ccc2c(c1)Sc1ccccc1N2CC1CN2CCC1CC2 (configuration not stated)    3.08 µM (inactive)
O=c1[nH]cc(F)c(=O)[nH]1    6.03 µM (inactive)
N#COc1ccc(Oc2ccccc2)cc1    23.1 µM (inactive)
O=C(CC(=O)C1CCOC1=O)C(=O)Nc1ccc(Cl)cc1Cl (configuration not stated)    > 100 µM (inactive)
C/C=C/C1(C)/C(=N\O)C(C)(CCC)C(=O)N1O (configuration not stated)    > 100 µM (inactive)
c1csc(-c2nnc(C34CC5CC(CC(C5)C3)C4)o2)c1    23.6 µM (inactive)
Cc1ccc(S(=O)(=O)C(CC(=O)N2CCCC2)C(=O)c2ccccc2)cc1 (configuration not stated)    44.5 µM (inactive)
CN(C)C(CN)CC1=C(CC(CN)N(C)C)CCC1 (configuration not stated)    > 100 µM (inactive)
CCCCCC(=O)n1[nH]c(=O)n(-c2ccc(OC)cc2)c1=O    > 100 µM (inactive)
C/C(CCc1ccccc1)=N\NC(N)=S    > 100 µM (inactive)
CC(=O)OCCn1c(Cc2ccc(Cl)cc2)nn(C(C)=O)c1=O    > 100 µM (inactive)

* * *

- System: OVCAR-3
- Experiment notes: NCI tumour cell line growth inhibition, 48 h
The source made the active and inactive calls. Cut-off read from the data, not from the text of the source: active = GI50 up to about 1.1 µM and inactive = higher.
Labels: active, inactive

Oc1c(Cl)c(Cl)c(O)c(CCNc2ccc3ncccc3c2)c1Cl    inactive
O=C1Oc2cc3c(c4cccc1c24)OCN(c1ccccc1)C3    inactive
Nc1cccc(-c2cc(O)c3cc4c(cc3n2)OCO4)c1    active
Oc1cccc(Nc2cc(O)nc(O)n2)c1    inactive
O=C(Nc1ccc(Cl)c(Cl)c1)C(=O)C(C(=O)c1ccccc1-c1ccccc1)C1OC(=O)c2ccccc21 (stereo not given)    inactive
C[N+](C)(C)/C=N\c1cccc2nsnc12    inactive
C[C@@H]1C[C@@H](O)[C@]2(O)O[C@@H]3C[C@@]4(C=O)[C@@H](CC[C@@H]5[C@@H]4CC[C@]4(C)[C@@H](C6=CC(=O)OC6)CC[C@]54O)C[C@H]3O[C@@H]2O1    active
N#CC(/N=N/c1ccccc1C(=O)O)C(N)=O (stereo not given)    inactive
CCN(CC)CCN1C(=O)C(=O)N(c2cccc3ccccc23)C1=O    inactive
O=C(OC(=O)n1ccc2ccccc21)n1ccc2ccccc21    inactive

* * *

- Tested on: RPMI-8226
- Experiment notes: NCI tumour cell line growth inhibition, 48 h
Activity calls are given as the source filed them. No stated cut-off is given here; in the data, active = GI50 up to about 1.1 µM and inactive = higher.
Some compounds, each annotated with its measured GI50.
Outcome measure: GI50

CC[C@H](C)[C@H](NC(=O)[C@@]1(O)[C@H](O)[C@]2(CC)C=CCN3CC[C@@]4(c5cc(Br)c(OC)cc5N(C)[C@@H]14)[C@@H]32)C(=O)OC    14.2 µM (inactive)
CCCCCCC(C)c1ccc2c(c1)C(=O)c1nc3ccncc3c(=O)n1-2 (stereo not drawn)    1.15 µM (inactive)
CCOC(=O)/C(O)=C1\C(=O)N(C)C(=O)C1c1ccc(OC)c(OC)c1 (stereo not drawn)    > 100 µM (inactive)
O=C1C(O)=C(CCCCCCCCC2CCCCC2)C(=O)c2ccccc21 [MENOCTONE]    6.15 µM (inactive)
CSc1c(C(=O)Nc2ccccc2)c(N)n(N)c(=O)c1C#N    > 100 µM (inactive)
COC(=O)CC[C@@H](C)[C@H]1CC[C@H]2[C@@H]3CC[C@@H]4C[C@H](O)CC[C@]4(C)[C@H]3CC[C@]12C    11.7 µM (inactive)
Cn1cc(NC(=O)c2cc(NC(=O)CCCCCCCCCC(=O)Nc3cc(C(=O)Nc4cc(C(=O)NCCC(=N)N)n(C)c4)n(C)c3)cn2C)cc1C(=O)NCCC(=N)N    8.26 µM (inactive)
COc1cc2c(cc1OC)C(Cc1c3ccccc3cc3ccccc13)N(C)CC2 (stereo not drawn)    13.9 µM (inactive)
